Reported TGI values are given for each entry in this list.
- Test system: 786-0 renal
- method: NCI tumour cell line growth inhibition, 48 h
Where a SMILES comes first, the peptide text is derived from it.

Look over these answered cases.
molecule	TGI
COC(=O)C1CC(C(=O)OC)c2nc3cc(C)ccc3nc21 (stereo not drawn)	> 100 µM
COc1ccc(OC)c(-c2cn3c(n2)sc2ccccc23)c1	> 100 µM
OCC1c2ccccc2-n2nc(-c3ccccc3)c(O)c21 (stereo not drawn)	32.1 µM

Challenge: Any idea what its TGI is? The molecule is "Cc1sc2nc3n(sc4nc5sc(C)c(C)c5c(=O)n43)c(=O)c2c1C"
Response given: > 100 µM

Challenge: Any idea what its TGI is? The molecule is "O=C(O)c1cc(Nc2c(O)c3c(c(O)c2Cl)C(=O)C=CC3=O)ccc1O"
Response given: > 10 µM

Challenge: Any idea what its TGI is? The molecule is "NC(=O)CC[C@H]1C(=O)N=C(N)N1C(=O)OCc1ccccc1"
Response given: > 100 µM

Challenge: Any idea what its TGI is? The molecule is "CN(c1ccc(Cl)cc1)S(=O)(=O)c1ccccc1"
Response given: > 100 µM

Challenge: Any idea what its TGI is? The molecule is "CC(C)(C)C(=O)O[C@H]1C=C[C@@H](O)[C@@H]2[C@H]1[C@@H]1C=C[C@H]2C1"
Response given: > 100 µM

Challenge: Any idea what its TGI is? The molecule is "Cc1cccc(-c2nc3c(C(=O)NCCN(C)C)cccc3[nH]2)c1"
Response given: 7.88 µM

Challenge: Any idea what its TGI is? The molecule is O=C1c2ccccc2C2(c3ccc(Cl)cc3)N[C@@H]3CCCC[C@@H]3N12 (stereo partly drawn)
Response given: > 100 µM

Challenge: Any idea what its TGI is? The molecule is Cc1ccc(S(=O)(=O)CC2CCCn3c2c(C#N)c2ccccc23)cc1 (stereo not drawn)
Response given: > 100 µM

Challenge: Any idea what its TGI is? The molecule is CCC(C)C(NC(=O)C1CCCN1)C(=O)NC(C(=O)NCC(=O)NC(CC(N)=O)C(=O)NC(CC(C)C)C(=O)NC(CC(C)C)C(=O)NC(CCCCN)C(N)=O)C(C)C (stereo not drawn) (H-PIVGNLLK-NH2; configuration not given here)
Response given: > 75 µM

Challenge: Any idea what its TGI is? The molecule is "O=C1NC(=S)N/C1=C\c1ccc(Sc2ccccc2C(=O)O)s1"
Response given: > 100 µM

Challenge: Any idea what its TGI is? The molecule is "C=C1[C@@H](C)[C@H]2[C@H](Cc3ccccc3)NC(=O)[C@]23OC(=O)/C=C/[C@H](O)CCC[C@@H](C)C/C=C/[C@H]3[C@@H]1O"
Response given: > 100 µM

Challenge: Any idea what its TGI is? The molecule is CCCCCCCCCCC[N+]1(Cc2ccccc2)CC2CCN(Cc3ccccc3)CC2C1 (stereo not drawn)
Response given: 2.21 µM

====

- Test system: T-47D breast
- method: NCI tumour cell line growth inhibition, 48 h
measurement.kind: TGI

Look over these answered cases.
molecule	tested.on	TGI
C=C(C)[C@@H]1CC[C@]2(C(=O)OC3OC(COC4OC(CO)C(OC5OC(C)C(O)C(O)C5O)C(O)C4O)C(O)C(O)C3O)CC[C@]3(C)[C@H](CC[C@@H]4[C@@]5(C)CC[C@H](O)[C@@](C)(CO)[C@@H]5CC[C@]43C)[C@@H]12 (some centres undefined)	T-47D breast	> 10 µM
Cc1c(N=Nc2ccc([N+](=O)[O-])cc2)nc2scc(-c3ccccc3)n12	T-47D breast	> 100 µM
Cn1c(=O)[nH]n(-c2ccc3ccccc3c2)c1=O	T-47D breast	> 100 µM
O=P1(N(CCCl)CCCl)NCCCO1 (centres undefined)	T-47D breast	> 250 µM
O=c1cc(C(F)(F)F)c2cc3c(cc2o1)NCCC3	T-47D breast	> 100 µM
Cc1ccc(S(=O)(=O)CC2CCCn3c2c(C#N)c2ccccc23)cc1 (centres undefined)	T-47D breast	> 100 µM
c1ccc(Cc2nc3ccc(Nc4ncnc5ccccc45)cc3[nH]2)cc1	T-47D breast	> 25 µM
COP(=O)(OC)C(NC(c1ccccc1)c1ccccc1)c1ccc2c(c1)OCO2 (centres undefined)	T-47D breast	84.7 µM

--- query ---
Challenge: Any idea what its TGI is? The molecule is OCC1c2ccccc2-n2nc(-c3ccccc3)c(O)c21 (centres undefined)
Response given: > 100 µM

====

Reported GI50 values are given for each entry in this list.
- System: HOP-62 NSCLC
- method: NCI tumour cell line growth inhibition, 48 h

Look over these answered cases.
compound	GI50
COc1ccc(/C=C/C(=O)c2cc3c(N)c(C(=O)Nc4ccccc4Cl)sc3nc2C)cc1	1.62 µM
CSc1nc2c(c(=O)[nH]1)N=C1c3ccccc3C(=O)C1C(c1ccc(F)cc1)N2 (stereo not given)	11.9 µM
Cc1c(C#N)cccc1-c1cc(-c2cn(Cc3cccc(C(C)(C)O)n3)nn2)nc(N)n1	22.2 µM
CC(CN(CP(=O)([O-])[O-])CP(=O)([O-])[O-])N(CP(=O)([O-])[O-])CP(=O)([O-])[O-].N.N.[Pt+2] (stereo not given)	> 100 µM

--- query ---
Challenge: Any idea what its GI50 is? The compound is "O=S(=O)([O-])c1cccc2cccc(N=Cc3ccccc3[O-])c12.O=S(=O)([O-])c1cccc2cccc(N=Cc3ccccc3[O-])c12.[O]=[U]=[O]"
Response given: 42.6 µM

====

- Test system: U251 CNS
Please answer using one outcome listed in active, inactive

A selection of reference data follows.
compound	cat
COc1ccc(-n2c(SCc3cc(OC)c(OC)c(OC)c3)nc3ccc(C)cc3c2=O)c(OC)c1	inactive
[Cl][Bi]([O]c1ccccn1)[O]c1ccccn1	inactive
CC(=O)OC[C@H]1O[C@@H](n2ccc(=O)[nH]c2=O)[C@H](OC(C)=O)[C@@H]1OC(C)=O	inactive
c1ccc(Cc2nc3ccc(Nc4ncnc5ccccc45)cc3[nH]2)cc1	inactive
C[C@]12CCC3[C@@H](C[C@@H]4SC(Nc5ccccc5)=N[C@@]45CC(=O)CC[C@]35C)[C@@H]1CCC2=O (stereo not given in full)	inactive
COc1ccccc1-[n+]1cc(-c2ccc(-c3ccccc3)cc2)n2c1CCCCC2	active
O=Cc1c(-c2cc(O)ccc2O)nc2sccn12	inactive
C[C@@H]1C=C(CCCCCCCCCCC[C@H](O)[C@@H]2CCC(=O)O2)C(=O)O1	inactive
C1CC[N-]CC1.C1CC[N-]CC1.C1CC[N-]CC1.C1CC[N-]CC1.[Cl][Rh][Cl]	inactive

Challenge: So what was the verdict on "Cc1ccc2c(c1)nc(C(=O)c1ccco1)c(C(F)(F)F)[n+]2[O-]" in this test?
Response given: inactive

====

Reported GI50 values are given for each entry in this list.
- Test system: MDA-MB-231 breast
- method: NCI tumour cell line growth inhibition, 48 h

compound	tested.on	observed.value
COc1ccc(/C=C/C(=O)c2cc3c(N)c(C(=O)Nc4ccccc4Cl)sc3nc2C)cc1	MDA-MB-231 breast	2.22 µM

Challenge: Any idea what its GI50 is? The compound is "OCCCCC#Cc1ccccc1C#Cc1ccccc1"
Response given: 4.29 µM

Challenge: Any idea what its GI50 is? The compound is "COc1ccc(-c2cc(-c3ccc(OC)c(OC)c3)nc(SCCCC(=O)NO)n2)cc1"
Response given: 1.94 µM

Challenge: Any idea what its GI50 is? The compound is "C1CC[N-]CC1.C1CC[N-]CC1.C1CC[N-]CC1.C1CC[N-]CC1.[Cl][Rh][Cl]"
Response given: 21.5 µM

Challenge: Any idea what its GI50 is? The compound is "O=Cc1c(-c2cc(O)ccc2O)nc2sccn12"
Response given: 12 µM

Challenge: Any idea what its GI50 is? The compound is "N[C@@H](Cc1c[nH]c2ccccc12)C(=O)NC1CCN(C(=O)c2c[nH]c3ccccc23)CC1"
Response given: 75.4 µM

Challenge: Any idea what its GI50 is? The compound is "CN(C)CCCn1c2c(c3cnccc3c1=O)C(=O)c1ccccc1-2"
Response given: 0.623 µM

====

Reported log10(TGI) values are given for each entry in this list.
- Test system: SNB-75 CNS
- method: NCI tumour cell line growth inhibition, 48 h
Values below are the log10 of the recorded TGI, with µM as the unit.

molecule	tested.on	log10(TGI)
CCN1C2=NC(=O)N(C)C(=O)C2(Cl)C(C(SC)S(=O)(=O)c2ccc(C)cc2)c2ccccc21 (stereo not drawn)	SNB-75 CNS	1.73
CCOC(=O)c1c(SCCN2CCCCC2)n(-c2ccccc2)c(=S)n(-c2ccccc2)c1=O	SNB-75 CNS	1.57
CCn1c(SCc2nnc(Nc3ccccc3)s2)nc2ccccc2c1=O	SNB-75 CNS	1.15
CSc1nc2c(c(=O)[nH]1)N=C1c3ccccc3C(=O)C1C(c1ccc(F)cc1)N2 (stereo not drawn)	SNB-75 CNS	1.17
CCCCCCCCCC(=O)CC(=O)c1ccc(O)cc1O	SNB-75 CNS	1.98
CC(C)CCCC(C)[C@H]1CC[C@H]2NCCCC[C@]12C (stereo partly drawn)	SNB-75 CNS	1.20

Challenge: Any idea what its log10(TGI) is? The molecule is CC[C@]1(O)CC2CN(CCc3c([nH]c4ccccc34)[C@@](C(=O)OC)(c3cc4c(cc3OC)N(C)[C@H]3[C@@](O)(C(=O)OC)[C@H](OC(C)=O)[C@]5(CC)C=CCN6CC[C@]43[C@@H]65)C2)C1 (stereo partly drawn)
Response given: 0.70

Challenge: Any idea what its log10(TGI) is? The molecule is "COc1c(-c2ccc(F)cc2)oc2cc(O)cc(O)c2c1=O"
Response given: 1.81
